TARGET DESC: LuxR (Aliivibrio fischeri, UniProt P35327)
Construct: a Δ-luxI derivative of V. fischeri ES114, in which the native lux operon behaves as the bioluminescent reporter; endogenous in cells; host or cells: V. fischeri ES114 (Δ-luxI)
Sequence (P35327 whole entry): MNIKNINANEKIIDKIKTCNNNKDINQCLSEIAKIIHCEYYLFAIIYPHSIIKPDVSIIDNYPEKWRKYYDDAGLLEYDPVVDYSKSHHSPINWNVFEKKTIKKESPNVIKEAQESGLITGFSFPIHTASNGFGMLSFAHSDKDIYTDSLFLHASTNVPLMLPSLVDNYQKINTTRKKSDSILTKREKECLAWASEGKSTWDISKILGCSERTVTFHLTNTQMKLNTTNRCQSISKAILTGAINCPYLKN
ASSAY REMARKS: cell-based
Assay type: cell-based, Vibrio fischeri
SETUP CONDITIONS: read-out: V. fischeri-LuxR Inhibition [%], 5 μM synthetic ligand against 5 μM OHHL; V. fischeri ES114 (Δ-luxI); normalized to OHHL
Let's look at some molecules and their measured inhibition at 5 µM.

Answered cases to consult:
| MOLECULE | EXPERIMENTAL RESULT |
| --- | --- |
| O=C(Cc1ccc(C(F)(F)F)cc1)N[C@H]1CCOC1=O [11s, 4-trifluoromethyl PHL] | ~80% |
| O=C(Cc1ccc(-c2ccccc2)cc1)N[C@H]1CCOC1=O [11q, 4-phenyl PHL] | ~80% |
| CCCCCCC(=O)NC1CCOC1=O (centres unmarked) | ~76% |
| O=C(Cc1ccc(Br)cc1)N[C@H]1CCOC1=O [compound 8, reference compound] | ~76% |

For record O=C(Cc1ccc(-c2ccccc2)cc1)NC1CCOC1=O (centres unmarked) the listed inhibition at 5 µM is ~70%
